Test system: NCI-H460
test.description: 60-cell-line screen: NCI-H460 (Non-Small Cell Lung)
Assay type: cell-based
measurement.setup: read-out: LC50 (the source's name)
result.type: CC50 (µM)
Lab book: enter the figure in µM, no units written.

-- ask Output CC50 of C=C1C[C@H]2C(O)Nc3cc(OCCCOc4cc5c(cc4OC)C(=O)N4CC(=C)C[C@H]4C(O)N5)c(OC)cc3C(=O)N2C1 (stereo partly shown) [Compound 16]
-- reply 1

====

System: MDA-N
test.description: 60-cell-line screen: MDA-N (Breast)
Format: cell-based
measurement.setup: read-out: LC50 (the source's name)
result.type: CC50 (nM)
Lab book: enter the figure in nM, no units written.

-- ask Output CC50 of C=C1C[C@H]2C(O)Nc3cc(OCCCOc4cc5c(cc4OC)C(=O)N4CC(=C)C[C@H]4C(O)N5)c(OC)cc3C(=O)N2C1 (stereo partly shown)
-- reply 57.5

====

System: MDA-MB-435
test.description: 60-cell-line screen: MDA-MB-435 (Breast)
Type: cell-based
measurement.setup: read-out: LC50 (the source's name)
result.type: CC50 (nM)
Lab book: enter the figure in nM, no units written.

-- ask Output CC50 of C=C1C[C@H]2C(O)Nc3cc(OCCCOc4cc5c(cc4OC)C(=O)N4CC(=C)C[C@H]4C(O)N5)c(OC)cc3C(=O)N2C1 (stereo partly shown) [Compound 16]
-- reply 85.1

====

Test system: SK-MEL-28
test.description: 60-cell-line screen: SK-MEL-28 (Melanoma)
Assay type: cell-based
measurement.setup: read-out: LC50 (the source's name)
result.type: CC50 (nM)
Lab book: enter the figure in nM, no units written.

-- ask Report value only: CC50, SK-MEL-28, C=C1C[C@H]2C(O)Nc3cc(OCCCOc4cc5c(cc4OC)C(=O)N4CC(=C)C[C@H]4C(O)N5)c(OC)cc3C(=O)N2C1 (stereo partly shown)
-- reply 1000

====

test.description: in vivo efficacy, UACC-62 (melanoma) subcutaneous tumor model
Design: species or system athymic mice
measurement.setup: athymic, mouse, in vivo; UACC-62, Early-SC, Q4D X3, intravenous
result.type: MTD at 9 days

-- ask Output MTD at 9 days of C=C1C[C@H]2C=Nc3cc(OCCCOc4cc5c(cc4OC)C(=O)N4CC(=C)C[C@H]4C=N5)c(OC)cc3C(=O)N2C1
-- reply 0.45 mg/kg

====

Tested on: RPMI-8226
test.description: 60-cell-line screen: RPMI-8226 (Leukemia)
Format: cell-based
measurement.setup: read-out: LC50 (the source's name)
result.type: CC50 (nM)
Lab book: enter the figure in nM, no units written.

-- ask Output CC50 of C=C1C[C@H]2C(O)Nc3cc(OCCCOc4cc5c(cc4OC)C(=O)N4CC(=C)C[C@H]4C(O)N5)c(OC)cc3C(=O)N2C1 (stereo partly shown)
-- reply 83.2

====

System: NCI-H226
test.description: 60-cell-line screen: NCI-H226 (Non-Small Cell Lung)
Assay type: cell-based
measurement.setup: read-out: LC50 (the source's name)
result.type: CC50 (µM)
Lab book: enter the figure in µM, no units written.

-- ask Output CC50 of C=C1C[C@H]2C(O)Nc3cc(OCCCOc4cc5c(cc4OC)C(=O)N4CC(=C)C[C@H]4C(O)N5)c(OC)cc3C(=O)N2C1 (stereo partly shown)
-- reply 1

====

Test system: SF-268
test.description: 60-cell-line screen: SF-268 (Central Nervous System)
Type: cell-based
measurement.setup: read-out: LC50 (the source's name)
result.type: CC50 (nM)
Lab book: enter the figure in nM, no units written.

-- ask Output CC50 of C=C1C[C@H]2C(O)Nc3cc(OCCCOc4cc5c(cc4OC)C(=O)N4CC(=C)C[C@H]4C(O)N5)c(OC)cc3C(=O)N2C1 (stereo partly shown) [Compound 16]
-- reply 1000

====

Tested on: SF-539
test.description: 60-cell-line screen: SF-539 (Central Nervous System)
Type: cell-based
measurement.setup: read-out: LC50 (the source's name)
result.type: CC50 (µM)
Lab book: enter the figure in µM, no units written.

-- ask Report value only: CC50, SF-539, C=C1C[C@H]2C(O)Nc3cc(OCCCOc4cc5c(cc4OC)C(=O)N4CC(=C)C[C@H]4C(O)N5)c(OC)cc3C(=O)N2C1 (stereo partly shown) [Compound 16]
-- reply 1

====

System: BT-549
test.description: 60-cell-line screen: BT-549 (Breast)
Format: cell-based
measurement.setup: read-out: LC50 (the source's name)
result.type: CC50 (nM)
Lab book: enter the figure in nM, no units written.

-- ask Output CC50 of C=C1C[C@H]2C(O)Nc3cc(OCCCOc4cc5c(cc4OC)C(=O)N4CC(=C)C[C@H]4C(O)N5)c(OC)cc3C(=O)N2C1 (stereo partly shown)
-- reply 1000

====

System: OVCAR-4
test.description: 60-cell-line screen: OVCAR-4 (Ovarian)
Type: cell-based
measurement.setup: read-out: LC50 (the source's name)
result.type: CC50 (nM)
Lab book: enter the figure in nM, no units written.

-- ask Output CC50 of C=C1C[C@H]2C(O)Nc3cc(OCCCOc4cc5c(cc4OC)C(=O)N4CC(=C)C[C@H]4C(O)N5)c(OC)cc3C(=O)N2C1 (stereo partly shown)
-- reply 1000

====

Tested on: M14
test.description: 60-cell-line screen: M14 (Melanoma)
Type: cell-based
measurement.setup: read-out: LC50 (the source's name)
result.type: CC50 (nM)
Lab book: enter the figure in nM, no units written.

-- ask Output CC50 of C=C1C[C@H]2C(O)Nc3cc(OCCCOc4cc5c(cc4OC)C(=O)N4CC(=C)C[C@H]4C(O)N5)c(OC)cc3C(=O)N2C1 (stereo partly shown) [Compound 16]
-- reply 1000

====

Tested on: TK-10
test.description: 60-cell-line screen: TK-10 (Renal)
Type: cell-based
measurement.setup: read-out: LC50
result.type: LC50 (nM)
Lab book: enter the figure in nM, no units written.

-- ask Output LC50 of C=C1C[C@H]2C(O)Nc3cc(OCCCOc4cc5c(cc4OC)C(=O)N4CC(=C)C[C@H]4C(O)N5)c(OC)cc3C(=O)N2C1 (stereo partly shown)
-- reply 1000

====

Test system: SN12C
test.description: 60-cell-line screen: SN12C (Renal)
Format: cell-based
measurement.setup: read-out: LC50 (the source's name)
result.type: CC50 (µM)
Lab book: enter the figure in µM, no units written.

-- ask Output CC50 of C=C1C[C@H]2C(O)Nc3cc(OCCCOc4cc5c(cc4OC)C(=O)N4CC(=C)C[C@H]4C(O)N5)c(OC)cc3C(=O)N2C1 (stereo partly shown)
-- reply 1

====

System: EKVX
test.description: 60-cell-line screen: EKVX (Non-Small Cell Lung)
Format: cell-based
measurement.setup: read-out: LC50 (the source's name)
result.type: CC50 (nM)
Lab book: enter the figure in nM, no units written.

-- ask Output CC50 of C=C1C[C@H]2C(O)Nc3cc(OCCCOc4cc5c(cc4OC)C(=O)N4CC(=C)C[C@H]4C(O)N5)c(OC)cc3C(=O)N2C1 (stereo partly shown) [Compound 16]
-- reply 1000

====

test.description: in vivo efficacy, MDA-MB-435 (breastca) subcutaneous tumor model
Set-up: species or system athymic mice
measurement.setup: athymic, mouse, in vivo; MDA-MB-435, Early-SC, Q4D X3, intravenous
result.type: MTD at 9 days (mg/kg)
Lab book: enter the figure in mg/kg, no units written.

-- ask Output MTD at 9 days of C=C1C[C@H]2C=Nc3cc(OCCCOc4cc5c(cc4OC)C(=O)N4CC(=C)C[C@H]4C=N5)c(OC)cc3C(=O)N2C1 [NSC 694501]
-- reply 0.45

====

System: CCRF-CEM
test.description: 60-cell-line screen: CCRF-CEM (Leukemia)
Assay type: cell-based
measurement.setup: read-out: LC50 (the source's name)
result.type: CC50 (nM)
Lab book: enter the figure in nM, no units written.

-- ask Output CC50 of C=C1C[C@H]2C(O)Nc3cc(OCCCOc4cc5c(cc4OC)C(=O)N4CC(=C)C[C@H]4C(O)N5)c(OC)cc3C(=O)N2C1 (stereo partly shown)
-- reply 1000

====

Tested on: OVCAR-8
test.description: 60-cell-line screen: OVCAR-8 (Ovarian)
Assay type: cell-based
measurement.setup: read-out: LC50 (the source's name)
result.type: CC50

-- ask Output CC50 of C=C1C[C@H]2C(O)Nc3cc(OCCCOc4cc5c(cc4OC)C(=O)N4CC(=C)C[C@H]4C(O)N5)c(OC)cc3C(=O)N2C1 (stereo partly shown) [Compound 16]
-- reply 1000 nM

====

System: KM12
test.description: 60-cell-line screen: KM12 (Colon)
Format: cell-based
measurement.setup: read-out: LC50 (the source's name)
result.type: CC50
Answer with the value and then the unit.

-- ask Output CC50 of C=C1C[C@H]2C(O)Nc3cc(OCCCOc4cc5c(cc4OC)C(=O)N4CC(=C)C[C@H]4C(O)N5)c(OC)cc3C(=O)N2C1 (stereo partly shown)
-- reply 1000 nM

src = patent US7834005B2
